# targetDesc: T1, cynomolgus Trop-2-His protein (cynomolgus, UniProt P09758 27-274 (human entry))
# T1 construct: also called cynmolgus Trop-His; Kactus Cat #TRP-CM121; not shown: His tag
# T1 chain: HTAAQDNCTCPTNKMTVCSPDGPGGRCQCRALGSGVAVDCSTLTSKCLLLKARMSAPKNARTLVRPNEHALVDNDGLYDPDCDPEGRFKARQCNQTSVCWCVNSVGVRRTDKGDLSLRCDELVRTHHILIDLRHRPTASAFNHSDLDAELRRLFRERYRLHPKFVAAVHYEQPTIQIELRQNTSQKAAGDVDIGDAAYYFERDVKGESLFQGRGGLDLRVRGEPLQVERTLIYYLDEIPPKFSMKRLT
# protocolSummary: BLI (Gator Prime), LEM supernatant Ab on HFC probe
binders and their reported koff
Give just the number in s⁻¹; leave the unit off.

binder | propertyName | recordedValue
1D10 (antibody, V domains shown, Rabbit-derived clone; LEM construct: VH + rabbit IgG CH1 + human IgG1 CH2-CH3) VH: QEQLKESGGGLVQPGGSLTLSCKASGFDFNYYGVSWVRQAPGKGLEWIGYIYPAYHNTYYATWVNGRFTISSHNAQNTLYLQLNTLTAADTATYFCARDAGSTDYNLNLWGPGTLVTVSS VL: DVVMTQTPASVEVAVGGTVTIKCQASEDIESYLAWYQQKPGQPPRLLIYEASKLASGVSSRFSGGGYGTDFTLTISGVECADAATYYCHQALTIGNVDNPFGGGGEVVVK | koff | 0.00027

Next binder, please.
// query Reported koff for 2H3 (antibody, V domains shown, Rabbit-derived clone; LEM construct: VH + rabbit IgG CH1 + human IgG1 CH2-CH3) VH: QEQLKESGGGLGQPGGSLTLSCKASGFDFNNYGVSWVRQAPGKGLEWIGYIYPAYHNTYYATWVNGRFTISSHNAQNTLYLQLNTLTAADTATYFCARDTGTTDYNFNLWGPGTLVTVSS VL: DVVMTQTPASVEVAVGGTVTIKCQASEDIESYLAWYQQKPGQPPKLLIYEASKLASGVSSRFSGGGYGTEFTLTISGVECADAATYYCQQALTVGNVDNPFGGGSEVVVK : what is it?
// result 0.00013
